Each item that follows carries a reported melting point.

Compound: [O-][n+]1onc2ccccc21
melting point (°C): 69
//
Compound: CC(O[S+]([O-])C(C)(C)C)C(O)(c1ccccc1)c1ccccc1 (centres undefined)
melting point (°C): 136
//
Compound: O=C(O)/C=C/c1ccc(F)c(F)c1
melting point (°C): 195
//
Compound: Cc1ccc(NC(=S)NN)c(C)c1 [4-(2,4-dimethylphenyl)-3-thiosemicarbazide]
melting point (°C): 151
//
Compound: O=[N+]([O-])c1cc(C=Nc2ccccc2)ccc1C=Nc1ccccc1 [N,N'-[(2-nitrobenzene-1,4-diyl)di(E)methylylidene]dianiline]
melting point (°C): 134
//
Compound: CCC(=O)c1ccc(O)cc1O [2',4'-dihydroxypropiophenone]
melting point (°C): 100
//
Compound: CCc1ccc(B(O)O)cc1
melting point (°C): 152
//
Compound: NC(=O)c1ccccc1N [o-aminobenzamide]
melting point (°C): 113
//
Compound: OB(O)c1ccc(Br)c(F)c1F
melting point (°C): 225
//
Compound: ClCCCCCl
melting point (°C): -37
//
Compound: CCC(CC)C(=O)O
melting point (°C): -15
//
Compound: CC(=O)C=Cc1ccc([N+](=O)[O-])o1
melting point (°C): 194
//
Compound: ClCc1ccc(Cl)c(Cl)c1 [3,4-dichlorobenzyl chloride]
melting point (°C): -3
//
Compound: CCCCCCS
melting point (°C): -80
//
Compound: CCC(=C(c1ccccc1)c1ccc(OCCN(C)C)cc1)c1ccccc1
melting point (°C): 96
//
Compound: CC(=O)Nc1ccccc1O
melting point (°C): 208
//
Compound: CC[C@H]1OC(=O)[C@H](C)[C@@H](O[C@H]2C[C@@](C)(OC)[C@@H](O)[C@H](C)O2)[C@H](C)[C@@H](O[C@@H]2O[C@H](C)C[C@H](N(C)C)[C@H]2O)[C@](C)(O)C[C@@H](C)C(=O)[C@H](C)[C@@H](O)[C@]1(C)O [erythromycin]
melting point (°C): 191
//
Compound: Clc1ccc(SSc2ccc(Cl)cc2)cc1 [bis(4-chlorophenyl) disulfide]
melting point (°C): 73
//
Compound: C=CCn1c(=O)n(CC=C)c(=O)n(CC=C)c1=O
melting point (°C): 24
//
Compound: CCCCCCCCCCO [Decan-1-ol]
melting point (°C): 7
//
Compound: CCCCCCCCCCCCCC [N-tetradecane]
melting point (°C): 6
//
Compound: CC(=O)Nc1ccc(-c2ccc3nn(-c4ccccc4)nc3c2)cc1 [N-[4-(2-phenyl-2H-benzotriazol-5-yl)phenyl]acetamide]
melting point (°C): 173
//
Compound: O=C(O)/C=C/c1ccccc1
melting point (°C): 133
//
Compound: CCC1(O)CCC2C3CCC4CC(OC(C)=O)CCC4(C)C3CCC21C (centres undefined) [17-hydroxypregnan-3-yl acetate]
melting point (°C): 165
//
Compound: CCSC [ethyl methyl sulfide]
melting point (°C): -106
//
Compound: CCCCCCCCCCCC [dodecane]
melting point (°C): -10
//
Compound: O=[N+]([O-])c1ccc(O)c([N+](=O)[O-])c1 [2,4-dinitrophenol]
melting point (°C): 108
//
Compound: CCCCCCCCCCCCCCCC(=O)OC [methyl palmitate]
melting point (°C): 31
//
Compound: CCCCC(=O)CC
melting point (°C): -39
//
Compound: ClC/C=C/c1ccccc1 [cinnamyl chloride]
melting point (°C): 7
//
Compound: CCC1(C2=CCCCCC2)C(=O)NC(=O)NC1=O
melting point (°C): 174
//
Compound: c1ccc2ccccc2c1
melting point (°C): 77
//
Compound: CCC1(O)CCC2(C)C(CCC3C4CCC(=O)C4(C)CCC32)C1 (centres undefined) [3-ethyl-3-hydroxyandrostan-17-one]
melting point (°C): 115
//
Compound: ClC=C(Cl)Cl
melting point (°C): -85
//
Compound: c1ccc(-c2ccccc2-c2ccccc2)cc1
melting point (°C): 57
//
Compound: NCCCCCO
melting point (°C): 36
//
Compound: CCOC(=O)C(=Nn1nnc2ccccc21)C(=O)OCC [diethyl (1h-benzotriazol-1-yl)iminomalonate]
melting point (°C): 100
//
Compound: O=C(O)[C@H]1CCCC[C@H]1C(=O)O [cis-1,2-cyclohexanedicarboxylic acid]
melting point (°C): 191
//
Compound: CCCCOC(=O)c1ccc(O)cc1 [butyl p-hydroxybenzoate]
melting point (°C): 69
